test system: Sporothrix schenkii; experiment: Antifungal activity in vitro, resazurin growth inhibition: Sporothrix schenkii (B62482); format: cell-based; conditions: read-out: Inf. A: Sporothrix schenkii B62482, pIC50 (converted)
measurement_kind: log10 IC50 (log10 of the value in µM)
Each number you see is log10 of IC50, and the unit inside the log is µM.

Q) Given Cc1cccc2cc(C3=NCc4c(Cl)cccc4-n4cccc43)oc12 , state its recorded log10 IC50.
A) 0.44

Q) Which log10 IC50 is listed for Clc1cccc2c1CN=C(c1ccc3sccc3c1)c1cccn1-2 ?
A) 0.22

Q) Quick one: log10 IC50 of Cc1cccc2c1CN=C(c1cc3ccccc3s1)c1cccn1-2 ?
A) -0.19

Q) Item under review: Cc1cccc2c1CNC(c1cc3ccccc3s1)c1cccn1-2.Cl (stereo not shown) . Reported log10 IC50?
A) 0.48

Q) What does the record list as log10 IC50 for Clc1cccc2c1-n1cccc1C(c1cc3ccccc3o1)=NC2 ?
A) -0.18

Q) For the compound Clc1cccc2c1CN=C(c1ccc3occc3c1)c1cccn1-2 , what log10 IC50 is on record?
A) 1.15

Provenance of the data: patent US9493468B2
